Molecular target: T1, AFP158/HLA-A*02:01 complex (human)
T1 construct: biotinylated on the BSP by BirA for ELISA and panning; also called biotinylated AFP158/HLA-A*02:01 complex; Bio-AFP158
Assay: SPR; vs AS170036 VL1VH1;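 also: crude scFv captured on sensor chip, peptide–HLA complex flowed over at several concentrations, KD estimated from association and dissociation kinetic rates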
measured_endpoint: Affinity increase (fold)

>>> numeric_value("AS170036 VL1VH1 HP58K (scFv) scFv: QSALTQPRSVSGSPGQSVTISCAGTSSDVGSENYVSWYQQHPGKAPKLMIYQVNKRASGVPDRFSGSKSGNTASLTISGLQAEDEADYYCASYRSSDHNIVFGGGTKLTVLGGGGSGGGGSGGGGSEVQLVESGGGLVQPGGSLRLSCAASGFTFSSYAMSWVRQAPGKGLEWVSTINSGTGSKYYADSVKGRFTISRDNSKNTLYLQMNSLRAEDTAVYYCAKNFFDGSWFLGPPAMDYWGQGTLVTVSSHHHHHH")
0.3
>>> numeric_value("AS170036 VL1VH1 HP110L (scFv) scFv: QSALTQPRSVSGSPGQSVTISCAGTSSDVGSENYVSWYQQHPGKAPKLMIYQVNKRASGVPDRFSGSKSGNTASLTISGLQAEDEADYYCASYRSSDHNIVFGGGTKLTVLGGGGSGGGGSGGGGSEVQLVESGGGLVQPGGSLRLSCAASGFTFSSYAMSWVRQAPGKGLEWVSTINSGTGSPYYADSVKGRFTISRDNSKNTLYLQMNSLRAEDTAVYYCAKNFFDGSWFLGPLAMDYWGQGTLVTVSSHHHHHH")
0.2
>>> numeric_value("AS170036 VL1VH1 HP58M (scFv) scFv: QSALTQPRSVSGSPGQSVTISCAGTSSDVGSENYVSWYQQHPGKAPKLMIYQVNKRASGVPDRFSGSKSGNTASLTISGLQAEDEADYYCASYRSSDHNIVFGGGTKLTVLGGGGSGGGGSGGGGSEVQLVESGGGLVQPGGSLRLSCAASGFTFSSYAMSWVRQAPGKGLEWVSTINSGTGSMYYADSVKGRFTISRDNSKNTLYLQMNSLRAEDTAVYYCAKNFFDGSWFLGPPAMDYWGQGTLVTVSSHHHHHH")
0.2
